# Measurement Notes: growth suppression of beta-catenin-knockout colon cells, dose response, cell-based, HCT116, human colon tumor (AID 1045)
# Reported Conditions: CellTiter-Glo, 60 h; series mostly up to 30 µM
Among all 1,500 compounds or so, about 1,400 (93%) were called active. So high a share suggests a set chosen from earlier hits. Only a sample is shown. Results with a measured potency or affinity are listed apart.
Experimental Readout: outcome

Compound: COc1ccc(Nc2oc(COc3ccc(Cl)cc3)nc2C#N)cc1
Experimental Readout: outcome
Measured Result: inactive

Compound: CCOc1ccccc1NC(=O)Cn1cnc2c(nnn2-c2cccc(OC)c2)c1=O
Experimental Readout: outcome
Measured Result: inactive

Compound: CC(C(=O)NC(=O)NCc1ccccc1)N1C(=O)c2ccccc2C1=O (stereo unspecified)
Experimental Readout: outcome
Measured Result: inactive

Compound: CCN(CC)C(=O)CCCOc1ccc(Cl)cc1Cl
Experimental Readout: outcome
Measured Result: inactive

Compound: Cc1ccc(CNc2ccc(O)cc2)cc1
Experimental Readout: outcome
Measured Result: inactive

Compound: CCCCNC(=O)Nc1c(C(=O)OC)[nH]c2ccc(C)cc12
Experimental Readout: outcome
Measured Result: inactive

Compound: O=C(Nc1cccc2ccccc12)N1CCN(Cc2ccc3c(c2)OCO3)CC1
Experimental Readout: outcome
Measured Result: inactive

Compound: C=CCNC(=O)c1ccccc1NC(=O)c1ccccc1C
Experimental Readout: outcome
Measured Result: inactive

Compound: CCCNC(=O)OC[C@H]1O[C@H](CCO/N=C/[C@@H](NS(=O)(=O)c2ccc(C)cc2)[C@H](C)/C=C/CC(=O)OC)C=C[C@@H]1Oc1ccc(OC)cc1
Experimental Readout: outcome
Measured Result: inactive

Compound: O=C(NCCOc1ccccc1)C(c1ccccc1)c1ccccc1
Experimental Readout: outcome
Measured Result: inactive

Compound: CCCn1c(SCC(=O)c2ccc3c(c2)NC(=O)CO3)nc2ccccc21
Experimental Readout: outcome
Measured Result: inactive

Origin of the recorded values: PubChem BioAssay AID1045
